- assayed_system: ferrous So H-NOX
- procedure_text: Stopped-flow binding kinetics of gaseous ligands to ferrous So H-NOX
- Design: species or system Shewanella oneidensis
- measurement_conditions: O2; estimated based on the sliding scale rule
assay_endpoint: Kd

# get_value(readout= Kd, system= ferrous So H-NOX) for O=O
~4.5 mM

====

- assayed_system: ferrous So H-NOX
- procedure_text: Stopped-flow binding kinetics of gaseous ligands to ferrous So H-NOX
- Design: species or system Shewanella oneidensis
- measurement_conditions: calculated as koff/kon; NO: 6c NO-heme-His complex
assay_endpoint: pKd
// pKd is dimensionless: -log10 of concentration (M)

Item under review: [C-]#[O+] [CO, carbon monoxide] . Reported pKd?
6.07
